These measurements were taken from PubChem BioAssay.

test: RPMI8226 myeloma cell viability, profiling panel, resazurin fluorescence, basal, 24 h, PK04 Diversity Set (AID 1180); conditions: higher = more signal;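 note: RPMI8826 multiple myeloma cell line at 5000 cells per well; test concentration not given here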
Mark NOT MET for z-score values under 0.4, and MET for everything at or above.

[[record]]
molecule = "C[N+](C)(C)CCCCNC(=O)[C@@H]1C[C@@H]2C(=O)N[C@@H](Cc3ccccc3)C(=O)N2[C@@H]1c1cccc(OCCO)c1"
answer_label = "NOT MET"

[[record]]
molecule = "O=C1c2ccccc2[C@](Cc2ccccc2I)(C(=O)NCCN2CCOCC2)[C@H](c2ccc(CO)cc2)N1C1CCCCC1"
answer_label = "NOT MET"

[[record]]
molecule = "CC(C)N1C(=O)[C@@]2(Cc3ccccc31)c1ccccc1C(=O)N(Cc1ccccc1Cl)[C@H]2c1ccc(CO)cc1"
answer_label = "MET"


hey, is z-score for this one >= 0.4? C=C(COC)/C(=C/C[C@@H](OC(C)=O)c1ccc(OCCO)cc1)c1cnc2ccccc2c1
NOT MET

hey, is z-score for this one >= 0.4? C=C[C@H](OC)[C@@H](OC(=O)Nc1ccc(OC)cc1)c1ccc(O)c(F)c1
MET

hey, is z-score for this one >= 0.4? C=CC1(C(=O)OC)CC=C(C(=O)OC)CC1 (configuration not stated)
MET

hey, is z-score for this one >= 0.4? O=C1C2C=CC(C(O)CCc3ccccc3)N(Nc3ccccc3F)C2C(=O)N1c1ccccc1 (configuration not stated)
MET

hey, is z-score for this one >= 0.4? CCOC(=O)[C@H]1C/C=C/C[C@H](C(=O)OCC)C(=O)O[C@H]2[C@@H](OC)O[C@H](CO)[C@@H](OC(=O)c3c(OC)cccc3OC)[C@@H]2OC1=O
NOT MET

hey, is z-score for this one >= 0.4? NCCCCCCNC(=O)[C@@H]1C[C@@H]2C(=O)NCC(=O)N2[C@@H]1c1ccc(O)cc1
NOT MET

hey, is z-score for this one >= 0.4? N#Cc1ccc(NN2C(C(O)C(c3ccccc3)c3ccccc3)C=CC3C(=O)N(c4ccccc4)C(=O)C32)cc1 (configuration not stated)
NOT MET

hey, is z-score for this one >= 0.4? C[N+](C)(C)CCCCNC(=O)[C@H]1C[C@H]2C(=O)N3CCC[C@H]3C(=O)N2[C@H]1c1cccc(OCCO)c1
NOT MET

* * *

test system: glycogen synthase kinase-3 (GSK3A per assay name; protocol says GSK3B); assay: GSK3 binders on small-molecule microarrays, primary screen, biochemical, small-molecule microarray, 635 nm fluorescence, GSK3A (AID 1103); settings: small-molecule microarray binding, fluorescence 635 nm; higher = more signal; note: the record names both GSK3A and GSK3B
ASSAY_ENDPOINT: composite z-score
Numbers only.

Batch of 3 compounds: report composite z-score for each.
1. COC(=O)[C@@]1(Cc2ccc(OC)cc2)[C@H]2c3cc(C(=O)N(C)C)n(C)c3C[C@H]2CN1C(=O)c1ccccc1
2. COC(=O)[C@@]1(Cc2ccc(F)cc2)[C@H]2c3cc(C(=O)N4CCCC4)n(CCCNc4ncc(C(F)(F)F)cc4Cl)c3C[C@H]2CN1C(=O)c1ccccc1
3. CN(C)CCCCCCNC(=O)[C@H]1C[C@H]2C(=O)N[C@@H](CCCCN)C(=O)N2[C@H]1c1cccc(OCCO)c1

[0.789, -0.548, 1.48]

Batch of 3 compounds: report composite z-score for each.
1. CC(C)[Si]1(C(C)C)O[C@@H](c2ccccc2)c2cc(-c3ccc(-c4ccc(Cl)c(Cl)c4)o3)nc(-c3ccccc3)c21
2. COc1cc(COC(C)=O)ccc1OC(C)=O
3. CO[C@H]1O[C@H](CO)[C@@H](OC(=O)Nc2ccc(Oc3ccccc3)cc2)[C@H](OC(=O)Nc2ccc3c(c2)OCO3)[C@H]1OC(=O)Nc1ccc2c(c1)OCO2

-0.514
0.578
1.31

Batch of 2 compounds: report composite z-score for each.
1. [N-]=[N+]=Nc1ccccc1[C@@H]1OC(c2ccc(OCCCO)cc2)=N[C@]1(CCS(=O)(=O)c1ccccc1)C(N)=O
2. C=CCNC(=O)[C@@H]1[C@H]2C(=O)O[C@H](c3ccccc3)[C@H](c3ccccc3)N2[C@H](c2ccc(OCCO)cc2)[C@@]12C(=O)Nc1ccc(C#CCC(C(=O)OC)C(=O)OC)cc12

1. 1.23
2. 1.27
